The entries that follow carry log10 Ki values tested on C-X-C chemokine receptor type 2 (Homo sapiens, UniProt P25025), drawn from several published reports.
metric_name: log10 Ki (log10 of the value in nM)

CC(C)C[C@H](CO)Nc1nc(SC(C)c2ccccc2Cl)nc2nc(N)sc12 (stereo partly shown); 3.75
CC[C@@H](Nc1n[s+]([O-])nc1Nc1cccc(C(=O)N(C)C)c1O)c1cc(C(C)C)co1 (stereo partly shown); 0.54
CC[C@@H](Nc1nsnc1Nc1cccc(C(=O)N(C)C)c1O)c1cc(C(C)C)co1; 1.45
CCC[C@H](CO)Nc1nc(S[C@@H](C)c2ccccc2)nc2nc(N)sc12; 3.06
CCC(Sc1nc(N[C@@H](CO)CC(C)C)c2sc(=O)[nH]c2n1)c1ccccc1 (stereo partly shown); 2.81
Cc1ccc([C@H](Nc2nsnc2Nc2cccc(C(=O)N(C)C)c2O)C(C)(C)C)o1; 1.15
CC(C)C[C@H](CO)Nc1nc(S[C@@H](C)c2cccc(C#N)c2)nc2nc(N)sc12; 3.62
CCC(Sc1nc(N[C@@H](CO)CC(C)C)c2sc(N)nc2n1)c1ccccc1 (stereo partly shown); 3.44
